From: paper PMC7098970

target: GABAA receptors (Rattus norvegicus, UniProt P18508+P62813+P63138); construct: Single pyramidal neurons from the hippocampal CA3 area or Purkinje cells from sagittal slices of the cerebellum were isolated; endogenous in cells; host or cells: acutely isolated Purkinje cells from cerebellar slices of Wistar rats, 11-14 days old; format: cell-based; conditions: 10 μM of steroid; 5 μM GABA
Sequence (P62813 28-455): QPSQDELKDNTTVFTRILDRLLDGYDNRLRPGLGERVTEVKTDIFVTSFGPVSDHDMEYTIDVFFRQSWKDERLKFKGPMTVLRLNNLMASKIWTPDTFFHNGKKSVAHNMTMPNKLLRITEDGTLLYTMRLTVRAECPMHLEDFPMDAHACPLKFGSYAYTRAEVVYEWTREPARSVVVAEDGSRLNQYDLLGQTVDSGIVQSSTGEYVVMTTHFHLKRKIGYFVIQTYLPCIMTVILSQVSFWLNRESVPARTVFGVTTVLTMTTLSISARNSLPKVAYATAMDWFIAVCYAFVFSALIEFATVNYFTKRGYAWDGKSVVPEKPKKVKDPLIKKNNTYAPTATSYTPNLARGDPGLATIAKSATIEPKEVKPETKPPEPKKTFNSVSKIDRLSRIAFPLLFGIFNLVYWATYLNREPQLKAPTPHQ
Sequence (P63138 25-474 limits assumed): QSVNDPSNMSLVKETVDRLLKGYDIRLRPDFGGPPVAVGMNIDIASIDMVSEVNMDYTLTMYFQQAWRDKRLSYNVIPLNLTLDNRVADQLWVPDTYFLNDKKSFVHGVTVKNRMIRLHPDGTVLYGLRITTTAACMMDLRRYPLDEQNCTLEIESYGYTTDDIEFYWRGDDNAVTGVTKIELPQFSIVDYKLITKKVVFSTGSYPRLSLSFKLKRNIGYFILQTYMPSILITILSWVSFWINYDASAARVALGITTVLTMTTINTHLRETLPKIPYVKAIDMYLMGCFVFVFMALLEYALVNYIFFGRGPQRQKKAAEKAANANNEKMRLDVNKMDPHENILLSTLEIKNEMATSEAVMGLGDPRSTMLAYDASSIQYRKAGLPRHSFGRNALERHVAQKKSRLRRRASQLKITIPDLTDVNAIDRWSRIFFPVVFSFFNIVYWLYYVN
Sequence (P18508 39-466): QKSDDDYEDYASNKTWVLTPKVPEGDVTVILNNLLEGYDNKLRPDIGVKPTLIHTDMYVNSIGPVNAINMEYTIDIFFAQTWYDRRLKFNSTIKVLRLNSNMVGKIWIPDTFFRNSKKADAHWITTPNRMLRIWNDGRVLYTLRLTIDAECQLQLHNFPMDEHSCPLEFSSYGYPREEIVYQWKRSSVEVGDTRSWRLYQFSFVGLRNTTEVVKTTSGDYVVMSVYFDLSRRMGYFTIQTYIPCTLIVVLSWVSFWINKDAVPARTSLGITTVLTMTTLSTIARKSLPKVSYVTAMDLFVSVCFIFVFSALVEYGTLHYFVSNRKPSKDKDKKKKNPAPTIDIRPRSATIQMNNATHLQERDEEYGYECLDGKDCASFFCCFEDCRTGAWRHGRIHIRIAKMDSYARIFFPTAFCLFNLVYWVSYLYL
Listing: τdes/τdes control of IGABA of selected compounds

{"columns": ["compound", "τdes/τdes control of IGABA"],
 "data": [
  ["C[C@]12CC[C@H]3[C@@H](CCC4=CC(=O)CC[C@@]43C)[C@@H]1CC[C@@H]2O [Compound 1, 17β-Hydroxyandrost-4-en-3-one]", "0.99 ± 0.02"],
  ["C[C@]12CCC(=O)C=C1CC[C@@H]1[C@@H]2CC[C@]2(C)C(=O)CC[C@@H]12 [Compound 2, Androst-4-en-3,17-dione]", "0.98 ± 0.02"],
  ["C[C@]12CC[C@H]3[C@@H](CCC4=CC(=O)CC[C@@]43C)[C@@H]1CC[C@H]2O [Compound 5, 17α-Hydroxyandrost-4-en-3-one]", "0.97 ± 0.03"]
]}

Noted τdes/τdes control of IGABA for C[C@]12CC[C@H](O)CC1=CC[C@@H]1[C@@H]2CC[C@]2(C)C(=O)CC[C@@H]12 [Compound 8, 3β-Hydroxy-androst-5-en-17-one] , tested on GABAA receptors (Rattus norvegicus, UniProt P18508+P62813+P63138): 0.88 ± 0.05

* * *

tested on: glycine receptor (GlyR); test: Glycine-induced chloride current (IGly), whole-cell patch-clamp in isolated pyramidal neurons of the rat hippocampus; format: cell-based; conditions: 10 μM compound; 100 μM glycine
// reported τdes IGly (effect on time constant of desensitization) per item

{"columns": ["compound", "endpoint_value"],
 "data": [
  ["C[C@]12CC[C@H](O)CC1=CC[C@@H]1[C@@H]2CC[C@]2(C)C(=O)CC[C@@H]12 [Compound 8, 3β-Hydroxy-androst-5-en-17-one]", "−79%"],
  ["C[C@]12CCC(=O)C[C@H]1CC[C@@H]1[C@@H]2CC[C@]2(C)C(=O)CC[C@@H]12", "−68%"]
]}

Query compound follows.
Recorded result, C[C@]12CC[C@H]3[C@@H](CCC4=CC(=O)CC[C@@]43C)[C@@H]1CC[C@H]2O [Compound 5, 17α-Hydroxyandrost-4-en-3-one] , τdes IGly (effect on time constant of desensitization): −72%

* * *

target: GABAA receptors (Rattus norvegicus, UniProt P18508+P62813+P63138); construct: Single pyramidal neurons from the hippocampal CA3 area or Purkinje cells from sagittal slices of the cerebellum were isolated; endogenous in cells; host or cells: acutely isolated Purkinje cells from cerebellar slices of Wistar rats, 11-14 days old; type: cell-based
measured_metric: Ipeak/Ipeak control of IGABA
Form: value (number only, do not type unit).

{"columns": ["molecule", "Ipeak/Ipeak control of IGABA"],
 "data": [
  ["C[C@]12CCC(=O)C[C@H]1CC[C@@H]1[C@@H]2CC[C@]2(C)C(=O)CC[C@@H]12", 0.99],
  ["C[C@]12CCC(=O)C[C@@H]1CC[C@@H]1[C@@H]2CC[C@]2(C)[C@@H](O)CC[C@@H]12 [Compound 3, 17β-Hydroxy-5α-androstan-3-one]", 0.95]
]}

// field: Ipeak/Ipeak control of IGABA; key: C[C@]12CCC(=O)C[C@@H]1CC[C@@H]1[C@@H]2CC[C@]2(C)C(=O)CC[C@@H]12 ; value = 0.92

Sure, the documented Ipeak/Ipeak control of IGABA for C[C@]12CC[C@H]3[C@@H](CC=C4C[C@@H](O)CC[C@@]43C)[C@@H]1CC[C@@H]2O is 0.77

Measured Ipeak/Ipeak control of IGABA, C[C@]12CC[C@H](O)C[C@@H]1CC[C@@H]1[C@@H]2CC[C@]2(C)C(=O)CC[C@@H]12 [Compound 4, 3β-Hydroxy-5α-androstan-17-one] : 0.75
